Origin of measurements: patent US10975042B2

- Experiment description: Long-term storage stability of NCA, purity by DSC
- Assay type: physicochemical
- Condition description: storage at 0 to 5° C., 2 months; DSC
Reported endpoint: Purity after 2 months from purification (mol %)
Lab book: enter the figure in mol %, no units written.

> print(dat)
                                   compound  readout.number
1  CC(=O)OCCCC1NC(=O)OC1=O (stereo not shown)           99.21
2                     O=C1CCCNC(=O)O1 [(R)]           99.04
3  O=C(CC1NC(=O)OC1=O)OCc1ccccc1 (stereo not shown)           99.25

Turning to the following compound.
Recorded Purity after 2 months from purification of CC(C)C1NC(=O)OC1=O (stereo not shown) , please.
98.75
